Molecular target: G/T mismatch-specific thymine DNA glycosylase (Homo sapiens);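 further: human TDG cleavage of quenched duplex DNA oligonucleotides coupled to APE1, strand release read as fluorescence at 594 nm, inhibition of TDG activity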
Conditions: Compound Concentration 10.0 uM, Hit No
Description: Inhibition of TDG by quantifying inhibition of TDG-mediated cleavage and dissociation of quenched duplex DNA oligonucleotides, measured as fluorescence at 594 nm. To generate a functional strand incision and increase turn-over this assay is coupled to APE1.
Reported inhibition values are given for each entry in this list.
assay readout: inhibition (%)

INSERT INTO results (smiles_entry, measurement_unit, number) VALUES
  ('CNC(=O)Nc1ccc(-c2nc(N3CC4CCC(C3)O4)c3cnn(C4CCC5(CC4)OCCO5)c3n2)cc1', '%', 46.1),
  ('CC(C)NC(=O)N1CC[C@H](NC2=Nc3cc(F)ccc3N(CC(F)F)c3ccc(Cl)cc32)C1', '%', 62.4),
  ('O=C(O)c1ccc2c(c1)nc(Nc1cccc(Cl)c1)c1ccncc12', '%', 97.5),
  ('C[C@@]1(Cc2ccc(C#N)cc2)C(=O)N(c2cc(Cl)cc(Cl)c2)c2ncc(C(=O)NC3(c4nc(C5CCC5)no4)CC3)n21', '%', 98.8);
